# experimental_system: purified catalytic domain of recombinant human TACE (rhTACEc) (Homo sapiens, UniProt P78536, N452Q/S266A)
# Construct: rhTACEc, Residue 215 to 477 with two mutation (S266A and N4520) and a 6×His tail; 6xHis (C); made in house; host or cells: baculovirus/Hi5 insect cells
# Sequence (P78536 215-477 S266A/N452Q limits assumed): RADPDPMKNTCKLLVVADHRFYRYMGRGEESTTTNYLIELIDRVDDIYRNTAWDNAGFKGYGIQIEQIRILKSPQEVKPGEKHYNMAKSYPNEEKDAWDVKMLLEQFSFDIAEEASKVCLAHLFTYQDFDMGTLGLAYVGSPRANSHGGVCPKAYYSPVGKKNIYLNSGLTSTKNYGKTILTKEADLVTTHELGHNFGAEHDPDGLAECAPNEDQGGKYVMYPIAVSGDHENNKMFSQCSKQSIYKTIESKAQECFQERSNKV
# run_description: TACE kinetic assay, cleavage of internally quenched fluorescent peptide substrate SPDL-3
# Assay type: biochemical
# condition_summary: TACE; class letters A-D; read-out: Ki Rating
pKi: −log10 of the molar value.
quantity_kind: pKi

INSERT INTO results (compound, quantity_kind, result) VALUES
  ('COc1ccc2c(c1)CCN(C[C@]1(C#Cc3ccc(Cl)s3)NC(=O)NC1=O)C2=O', 'pKi', '< 7.00');

**Q:** Would you kindly share the measured pKi for COc1ccc2c(c1)C(=O)N(C[C@@]1(C#Cc3cnc4c(c3)CCC(=O)N4)NC(=O)NC1=O)C2 ?
**A:** > 8.30

**Q:** And for COc1ccc2c(c1)C(=O)N(C[C@@]1(C#Cc3cccc(C4(C)NC(=O)NC4=O)c3)NC(=O)NC1=O)C2 (some centres unmarked) [Compound 1580] ?
**A:** > 8.30

**Q:** And for CCS(=O)(=O)NC(=O)c1ccc(C#C[C@]2(CN3Cc4ccc(OC)cc4C3=O)NC(=O)NC2=O)cc1 ?
**A:** > 8.30

**Q:** And for COc1ccc2c(c1)C(=O)N(C[C@@]1(C#Cc3ccccc3C(N)=O)NC(=O)NC1=O)C2 ?
**A:** > 8.30

**Q:** And for COc1ccc2c(c1)C(=O)N(C[C@@]1(C#Cc3cc(Cl)c(Br)s3)NC(=O)NC1=O)C2 ?
**A:** > 8.30

**Q:** And for CO/N=C/c1cccc(C#C[C@]2(CN3Cc4ccc(OC)cc4C3=O)NC(=O)NC2=O)c1 ?
**A:** > 8.30

**Q:** And for COc1ccc2c(c1)C(=O)N(C[C@@]1(C#Cc3cncc(C(C)=NO)c3)NC(=O)NC1=O)C2 ?
**A:** > 8.30

**Q:** And for COc1ccc2c(c1)C(=O)N(C[C@@]1(C#Cc3ccc4[nH]c(=O)sc4c3)NC(=O)NC1=O)C2 ?
**A:** > 8.30

**Q:** And for COc1ccc2c(c1)C(=O)N(C[C@@]1(C#Cc3ccc(Cl)c(C(=O)NCCN(C)C)c3)NC(=O)NC1=O)C2 ?
**A:** > 8.30

**Q:** And for COc1ccc2c(c1)C(=O)N(C[C@]1(C#Cc3ccc(SC(F)(F)F)cc3)NC(=O)NC1=O)C2 ?
**A:** < 7.00

**Q:** And for COc1ccc2c(c1)C(=O)N(C[C@]1(C#Cc3ccc4[nH]ccc4c3)NC(=O)NC1=O)C2 ?
**A:** 7.60 to 8.30

**Q:** And for COc1ccc2c(c1)C(=O)N(C[C@@]1(C#Cc3ccc4nc(C(F)(F)F)cn4c3)NC(=O)NC1=O)C2 ?
**A:** > 8.30

**Q:** And for O=C1NC(=O)C(C#Cc2cnc3ccc(Br)cn23)(CN2Cc3ccc(OC(F)F)cc3C2=O)N1 (centres unmarked) ?
**A:** 7.60 to 8.30

**Q:** And for CNC(=O)c1cc(C#C[C@]2(CN3Cc4ccc(OC)cc4C3=O)NC(=O)NC2=O)ccc1Cl ?
**A:** > 8.30

**Q:** And for COc1ccc2c(c1)C(=O)N(C[C@@]1(C#Cc3ccc4c(c3)C(=O)NC4=O)NC(=O)NC1=O)C2 ?
**A:** > 8.30

**Q:** And for COc1ccc2c(c1)C(=O)N(C[C@@]1(C#Cc3cnc4ccccn34)NC(=O)NC1=O)C2 ?
**A:** > 8.30

**Q:** And for COc1ccc2c(c1)C(=O)N(C[C@@]1(C#Cc3ccc(CO)s3)NC(=O)NC1=O)C2 ?
**A:** > 8.30
